Data provenance: patent US20260130395A1

assay: Stability of cannabinoid compounds and Vitamin E components in Beverage 1 (AB White) by LCMSMS; type: physicochemical; details: AB White stored at 8° C.; 240 days
Is Stability of Plant-Derived Cannabinoid Compounds in AB White, 8° C. at least 4 µg/mL? Then y. If not, n.

> print(dat)
                                   molecule  qualitativelabel
1  CCCCCc1cc(O)c2c(c1)OC(C)(C)c1ccc(C)cc1-2 [CBN, cannabinol]                 n
2  CCCCCc1cc(O)c2c(c1)OC(C)(C)[C@@H]1CCC(C)=C[C@@H]21 [D9 THC, delta-9-tetrahydrocannabinol, reference compound]                 y
3  CCCCCc1cc(O)c(C/C=C(\C)CCC=C(C)C)c(O)c1 [CBG, cannabigerol]                 y
4  CCCCCc1cc2c(c(O)c1C(=O)O)[C@@H]1C=C(C)CC[C@H]1C(C)(C)O2 [D9 THCA, delta-9-tetrahydrocannabinolic acid]                 n
5  CCCc1cc(O)c2c(c1)OC(C)(C)[C@@H]1CCC(C)=C[C@@H]21 [THCV, delta-9-tetrahydrocannabivarin]                 n
6  C=C(C)[C@@H]1CCC(C)=C[C@H]1c1c(O)cc(CCC)cc1O [CBDV, cannabidivarin]                 n

**Q:** Confirm if Stability of Plant-Derived Cannabinoid Compounds in AB White, 8° C. reported for the molecule CCCCCc1cc(O)c2c(c1)OC(C)(CCC=C(C)C)C=C2 (stereo not shown) [CBC, cannabichromene] is 4 µg/mL or above.
**A:** n
